- system name: QPCTL (Homo sapiens (Human), UniProt Q9NXS2)
- Sequence (Q9NXS2 53-382): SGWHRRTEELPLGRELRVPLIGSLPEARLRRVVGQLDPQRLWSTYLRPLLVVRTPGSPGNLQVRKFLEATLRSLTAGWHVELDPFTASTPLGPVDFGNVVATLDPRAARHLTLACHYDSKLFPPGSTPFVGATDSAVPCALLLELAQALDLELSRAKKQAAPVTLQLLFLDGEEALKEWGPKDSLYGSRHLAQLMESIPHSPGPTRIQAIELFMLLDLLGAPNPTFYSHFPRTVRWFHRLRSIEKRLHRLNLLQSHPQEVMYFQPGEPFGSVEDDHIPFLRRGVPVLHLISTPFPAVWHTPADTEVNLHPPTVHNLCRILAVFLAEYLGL
- assay method text: QPCTL Enzymatic Activity Assay (coupled-enzyme fluorescent assay, H-Gln-AMC substrate)
- Assay type: biochemical
- experimental parameters: recombinant truncated human QPCTL 10-12 nM, 10 μM H-Gln-AMC; read-out: QPCTL Inhibition IC50
- Description: Protein expression was induced when the bacterial culture OD600 was approximately 0.7 using 1 mM IPTG and the cells incubated at 20° C. for approximately 16 hours. […] QPCTL activity was measured in a coupled-enzyme assay using the QPCTL substrate, glutamine-7-amido-4-methylcoumarin (H-Gln-AMC, Bachem), which is converted to pyroglutamyl-AMC by QPCTL. […] Following incubation, the fluorescence was measured with a plate reader using excitation at 380 nm and emission at 460 nm. […]
pIC50: −log10 of the molar value.
observable: pIC50

Answered examples (3):
Cn1cnnc1C1CCN(c2c(-c3ccc(F)nc3)ccc(C3COC3)c2C#N)CC1 ... > 7.00
Cn1cnnc1C1CCN(c2c(C#N)cccc2-c2ccc3nonc3c2)CC1 ... 6.00 to 7.00
COc1ccc(-c2ccnnc2)c(N2CCC(c3nncn3C)CC2)c1C#N ... > 7.00

# input for lookup
Q: // lookup pIC50 for Cn1cnnc1C1CCN(c2c(C#N)cccc2-c2ccc(OCCO)nc2)CC1
A: > 7.00
